Test system: MDA-MB-468
Test Parameters: read-out: 50% lethal concentration (LC50); MDA-MB-468, Breast
Reported Endpoint: CC50
Kindly write the number and append the unit.

C=C1CCC2C3(C)COC(c4cn(-c5ccccc5)nc4-c4ccc(OC)cc4)OC3CCC2(C)C1CC=C1C(=O)OCC1O (stereo not shown) [1j]: 6.16 µM

May I ask what CC50 has been recorded for C=C1CCC2C3(C)COC(c4cn(-c5ccccc5)nc4-c4cccc([N+](=O)[O-])c4)OC3CCC2(C)C1CC=C1C(=O)OCC1O (stereo not shown) [1b] ?
7 µM

What do you get for C=C1CCC2C3(C)COC(c4cn(-c5ccccc5)nc4-c4cccc(Cl)c4)OC3CCC2(C)C1CC=C1C(=O)OCC1O (stereo not shown) [1d] ?
6.3 µM

What do you get for C=C1CCC2C3(C)COC(c4cn(-c5ccccc5)nc4-c4cccc(F)c4)OC3CCC2(C)C1CC=C1C(=O)OCC1O (stereo not shown) [1c] ?
6.01 µM

What do you get for C=C1CCC2C3(C)COC(c4cn(-c5ccccc5)nc4-c4ccc(Cl)cc4)OC3CCC2(C)C1CC=C1C(=O)OCC1O (stereo not shown) [1g] ?
6.36 µM

What do you get for C=C1CCC2C3(C)COC(c4cn(-c5ccccc5)nc4-c4ccc(Br)cc4)OC3CCC2(C)C1CC=C1C(=O)OCC1O (stereo not shown) [1h] ?
6.23 µM

What do you get for C=C1CCC2C3(C)COC(c4cn(-c5ccccc5)nc4-c4ccc(C)cc4)OC3CCC2(C)C1CC=C1C(=O)OCC1O (stereo not shown) [1i] ?
6.43 µM

----------
Measured CC50 of individual entries
Test system: SNB-19
Assay type: cell-based
Test Parameters: SNB-19, CNS; read-out: 50% lethal concentration (LC50)
Give the value in µM but do not write µM after it.

Example entries and their recorded answers appear below.
C=C1CCC2C3(C)COC(c4cn(-c5ccccc5)nc4-c4cccc([N+](=O)[O-])c4)OC3CCC2(C)C1CC=C1C(=O)OCC1O (centres unmarked) [1b]: 60
C=C1CCC2C3(C)COC(c4cn(-c5ccccc5)nc4-c4cccc(Br)c4)OC3CCC2(C)C1CC=C1C(=O)OCC1O (centres unmarked) [1e]: 17.2
C=C1CCC2C3(C)COC(c4cn(-c5ccccc5)nc4-c4cccc(Cl)c4)OC3CCC2(C)C1CC=C1C(=O)OCC1O (centres unmarked) [1d]: 54.8
C=C1CCC2C3(C)COC(c4cn(-c5ccccc5)nc4-c4ccccc4)OC3CCC2(C)C1CC=C1C(=O)OCC1O (centres unmarked) [1a]: 7.73

May I ask what CC50 has been recorded for C=C1CCC2C3(C)COC(c4cn(-c5ccccc5)nc4-c4ccc(OC)cc4)OC3CCC2(C)C1CC=C1C(=O)OCC1O (centres unmarked) [1j] ?
34.6

----------
Each entry below carries its measured GI50, system: SK-MEL-2.
Give the value in µM but do not write µM after it.

C=C1CCC2C3(C)COC(c4cn(-c5ccccc5)nc4-c4cccc(F)c4)OC3CCC2(C)C1CC=C1C(=O)OCC1O (stereo not shown) [1c]: 1.79
C=C1CCC2C3(C)COC(c4cn(-c5ccccc5)nc4-c4ccc(C)cc4)OC3CCC2(C)C1CC=C1C(=O)OCC1O (stereo not shown) [1i]: 1.79

May I ask what GI50 has been recorded for C=C1CCC2C3(C)COC(c4cn(-c5ccccc5)nc4-c4cccc(Br)c4)OC3CCC2(C)C1CC=C1C(=O)OCC1O (stereo not shown) [1e] ?
1.78

What do you get for C=C1CCC2C3(C)COC(c4cn(-c5ccccc5)nc4-c4cccc(Cl)c4)OC3CCC2(C)C1CC=C1C(=O)OCC1O (stereo not shown) [1d] ?
1.57

What do you get for C=C1CCC2C3(C)COC(c4cn(-c5ccccc5)nc4-c4ccc(F)cc4)OC3CCC2(C)C1CC=C1C(=O)OCC1O (stereo not shown) [1f] ?
1.69

What do you get for C=C1CCC2C3(C)COC(c4cn(-c5ccccc5)nc4-c4ccc(OC)cc4)OC3CCC2(C)C1CC=C1C(=O)OCC1O (stereo not shown) [1j] ?
1.57

What do you get for C=C1CCC2C3(C)COC(c4cn(-c5ccccc5)nc4-c4ccc(Br)cc4)OC3CCC2(C)C1CC=C1C(=O)OCC1O (stereo not shown) [1h] ?
1.76

What do you get for C=C1CCC2C3(C)COC(c4cn(-c5ccccc5)nc4-c4ccccc4)OC3CCC2(C)C1CC=C1C(=O)OCC1O (stereo not shown) [1a] ?
1.74

What do you get for C=C1CCC2C3(C)COC(c4cn(-c5ccccc5)nc4-c4ccc(Cl)cc4)OC3CCC2(C)C1CC=C1C(=O)OCC1O (stereo not shown) [1g] ?
1.77

What do you get for C=C1CCC2C3(C)COC(c4cn(-c5ccccc5)nc4-c4cccc([N+](=O)[O-])c4)OC3CCC2(C)C1CC=C1C(=O)OCC1O (stereo not shown) [1b] ?
1.78

----------
Test system: K-562
Test Parameters: read-out: 50% lethal concentration (LC50); K-562, Leukemia
Reported Endpoint: CC50

C=C1CCC2C3(C)COC(c4cn(-c5ccccc5)nc4-c4ccc(Cl)cc4)OC3CCC2(C)C1CC=C1C(=O)OCC1O (stereo not drawn) [1g]: > 100 µM
C=C1CCC2C3(C)COC(c4cn(-c5ccccc5)nc4-c4cccc(Br)c4)OC3CCC2(C)C1CC=C1C(=O)OCC1O (stereo not drawn) [1e]: > 100 µM

May I ask what CC50 has been recorded for C=C1CCC2C3(C)COC(c4cn(-c5ccccc5)nc4-c4cccc([N+](=O)[O-])c4)OC3CCC2(C)C1CC=C1C(=O)OCC1O (stereo not drawn) [1b] ?
> 100 µM

----------
Tested on: SK-OV-3
Test Parameters: read-out: 50% lethal concentration (LC50); SK-OV-3, Ovarian
Reported Endpoint: CC50

C=C1CCC2C3(C)COC(c4cn(-c5ccccc5)nc4-c4ccc(C)cc4)OC3CCC2(C)C1CC=C1C(=O)OCC1O (stereo not drawn) [1i]: > 100 µM
C=C1CCC2C3(C)COC(c4cn(-c5ccccc5)nc4-c4ccc(F)cc4)OC3CCC2(C)C1CC=C1C(=O)OCC1O (stereo not drawn) [1f]: 30.7 µM

Could you now look at the following compound, please?
May I ask what CC50 has been recorded for C=C1CCC2C3(C)COC(c4cn(-c5ccccc5)nc4-c4ccc(OC)cc4)OC3CCC2(C)C1CC=C1C(=O)OCC1O (stereo not drawn) [1j] ?
> 100 µM

----------
Test system: HT29
Test Parameters: read-out: 50% lethal concentration (LC50); HT29, Colon
Measured CC50 of individual entries

Example entries and their recorded answers appear below.
C=C1CCC2C3(C)COC(c4cn(-c5ccccc5)nc4-c4cccc(Cl)c4)OC3CCC2(C)C1CC=C1C(=O)OCC1O (stereo not shown): 6.57 µM
C=C1CCC2C3(C)COC(c4cn(-c5ccccc5)nc4-c4ccc(C)cc4)OC3CCC2(C)C1CC=C1C(=O)OCC1O (stereo not shown): > 100 µM
C=C1CCC2C3(C)COC(c4cn(-c5ccccc5)nc4-c4ccc(OC)cc4)OC3CCC2(C)C1CC=C1C(=O)OCC1O (stereo not shown): 6.73 µM

Could you now look at the following compound, please?
May I ask what CC50 has been recorded for C=C1CCC2C3(C)COC(c4cn(-c5ccccc5)nc4-c4ccc(Br)cc4)OC3CCC2(C)C1CC=C1C(=O)OCC1O (stereo not shown) ?
> 100 µM

----------
Test system: MALME-3M
Test Parameters: Melanoma
Respond with 1.0 for Total growth inhibition (TGI) values of 3 µM and above, 0.0 for values below.

Solved cases (4 shown):
C=C1CCC2C3(C)COC(c4cn(-c5ccccc5)nc4-c4ccccc4)OC3CCC2(C)C1CC=C1C(=O)OCC1O (stereo not drawn): 1.0
C=C1CCC2C3(C)COC(c4cn(-c5ccccc5)nc4-c4ccc(C)cc4)OC3CCC2(C)C1CC=C1C(=O)OCC1O (stereo not drawn): 1.0
C=C1CCC2C3(C)COC(c4cn(-c5ccccc5)nc4-c4cccc(Cl)c4)OC3CCC2(C)C1CC=C1C(=O)OCC1O (stereo not drawn): 0.0
C=C1CCC2C3(C)COC(c4cn(-c5ccccc5)nc4-c4cccc(F)c4)OC3CCC2(C)C1CC=C1C(=O)OCC1O (stereo not drawn): 1.0

Pending molecule:
Is it the case that C=C1CCC2C3(C)COC(c4cn(-c5ccccc5)nc4-c4cccc([N+](=O)[O-])c4)OC3CCC2(C)C1CC=C1C(=O)OCC1O (stereo not drawn) has Total growth inhibition (TGI) reaching or exceeding 3 µM?
1.0

----------
System: HCT-15
Test Parameters: HCT-15, Colon
Measured GI50 of individual entries
Give the value in nM but do not write nM after it.

Example entries and their recorded answers appear below.
C=C1CCC2C3(C)COC(c4cn(-c5ccccc5)nc4-c4ccc(C)cc4)OC3CCC2(C)C1CC=C1C(=O)OCC1O (stereo not shown) [1i]: 1590
C=C1CCC2C3(C)COC(c4cn(-c5ccccc5)nc4-c4ccc(OC)cc4)OC3CCC2(C)C1CC=C1C(=O)OCC1O (stereo not shown) [1j]: 1580
C=C1CCC2C3(C)COC(c4cn(-c5ccccc5)nc4-c4ccc(Cl)cc4)OC3CCC2(C)C1CC=C1C(=O)OCC1O (stereo not shown) [1g]: 1590
C=C1CCC2C3(C)COC(c4cn(-c5ccccc5)nc4-c4ccc(F)cc4)OC3CCC2(C)C1CC=C1C(=O)OCC1O (stereo not shown) [1f]: 1610
C=C1CCC2C3(C)COC(c4cn(-c5ccccc5)nc4-c4ccccc4)OC3CCC2(C)C1CC=C1C(=O)OCC1O (stereo not shown) [1a]: 1720
C=C1CCC2C3(C)COC(c4cn(-c5ccccc5)nc4-c4cccc(Br)c4)OC3CCC2(C)C1CC=C1C(=O)OCC1O (stereo not shown) [1e]: 1600
C=C1CCC2C3(C)COC(c4cn(-c5ccccc5)nc4-c4ccc(Br)cc4)OC3CCC2(C)C1CC=C1C(=O)OCC1O (stereo not shown) [1h]: 1600
C=C1CCC2C3(C)COC(c4cn(-c5ccccc5)nc4-c4cccc([N+](=O)[O-])c4)OC3CCC2(C)C1CC=C1C(=O)OCC1O (stereo not shown) [1b]: 1740
C=C1CCC2C3(C)COC(c4cn(-c5ccccc5)nc4-c4cccc(Cl)c4)OC3CCC2(C)C1CC=C1C(=O)OCC1O (stereo not shown) [1d]: 1580

Could you now look at the following compound, please?
May I ask what GI50 has been recorded for C=C1CCC2C3(C)COC(c4cn(-c5ccccc5)nc4-c4cccc(F)c4)OC3CCC2(C)C1CC=C1C(=O)OCC1O (stereo not shown) [1c] ?
1570

Data origin: paper PMC12298351
